Parameter microsomal CLint: see the listing below.
Assay: in vitro
Conditions: mouse, liver microsomes
observed_property: microsomal CLint (µL/min/mg)

compound: COc1ccc2c(c1)[C@]13CCCC[C@@H]1[C@H](C2)N(C)CC3 [Dextromethorphan]
observed_property: microsomal CLint
units: µL/min/mg
observed: 179

compound: CCCCCOc1ccc(C(=O)NNC(=S)NC(C)=O)cc1 [1b]
observed_property: microsomal CLint
units: µL/min/mg
observed: 49

compound: COc1ccc2[nH]c([S+]([O-])Cc3ncc(C)c(OC)c3C)nc2c1 (stereo not shown) [Omeprazole]
observed_property: microsomal CLint
units: µL/min/mg
observed: 143

compound: O=C(O)Cc1ccccc1Nc1c(Cl)cccc1Cl [Diclofenac]
observed_property: microsomal CLint
units: µL/min/mg
observed: 121
